SYSTEM: human transferrin (human, UniProt P02787 20-698)
Sequence (P02787 20-698 limits assumed): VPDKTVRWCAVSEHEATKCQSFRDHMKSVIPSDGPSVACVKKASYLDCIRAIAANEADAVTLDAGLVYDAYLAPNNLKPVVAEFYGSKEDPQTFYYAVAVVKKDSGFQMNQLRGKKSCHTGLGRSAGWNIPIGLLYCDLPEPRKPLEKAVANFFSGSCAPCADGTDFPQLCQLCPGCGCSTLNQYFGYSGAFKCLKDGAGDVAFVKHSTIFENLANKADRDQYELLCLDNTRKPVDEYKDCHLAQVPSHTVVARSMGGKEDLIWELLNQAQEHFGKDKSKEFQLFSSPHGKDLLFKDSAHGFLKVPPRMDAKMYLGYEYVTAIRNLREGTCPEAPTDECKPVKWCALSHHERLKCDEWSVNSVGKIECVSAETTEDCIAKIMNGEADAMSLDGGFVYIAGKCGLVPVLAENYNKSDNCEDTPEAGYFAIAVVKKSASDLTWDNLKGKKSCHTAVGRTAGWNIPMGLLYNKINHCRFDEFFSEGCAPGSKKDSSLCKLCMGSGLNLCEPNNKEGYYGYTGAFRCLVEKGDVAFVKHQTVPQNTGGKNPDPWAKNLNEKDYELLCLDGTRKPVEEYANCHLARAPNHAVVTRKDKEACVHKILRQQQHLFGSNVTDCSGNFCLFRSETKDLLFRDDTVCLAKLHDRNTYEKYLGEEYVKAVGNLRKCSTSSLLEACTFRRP
PROTOCOL SUMMARY: SPR, BIAcore T200, human transferrin amine-coupled to CM5 chip, sdAb injected
Quick list: kon per entry.
# unit: M⁻¹ s⁻¹ | format: bare number

AS01274VHa-A49 (VHH, Humanized variant of AS01274, C-terminal 6xHis tag) VHH: EVQLVESGGGLVQPGGSLRLSCAASGSIASIATMAWYRQAPGKGLELVSGITRGGSTKYADSVKGRFTISRDNSKNTLYLQMNSLRAEDTAVYYCTDYSRKYYQDYWGQGTLVTVSS	1.5e+06
AS01299VH3a-L47 (VHH, Humanized variant of AS01299, C-terminal 6xHis tag; also called AS01299VH3a-L47-2) VHH: EVQLVESGGGLVQPGGSLRLSCAASGSIFSIATMAWYRQAPGKGLEWVAGITRSGSTNYRDSVKGRFTISRDNSKNTMYLQMNSLRAEDTAVYYCTDYSSRYYHDYWGQGTLVTVSS	680000
AS01274VHa (VHH, Humanized variant of AS01274, C-terminal 6xHis tag) VHH: EVQLVESGGGLVQPGGSLRLSCAASGSIASIATMAWYRQAPGKGLELVAGITRGGSTKYADSVKGRFTISRDNSKNTLYLQMNSLRAEDTAVYYCTDYSRKYYQDYWGQGTLVTVSS	1.5e+06
AS01274 sdAb (VHH, Llama sdAb made in E. coli with a C-terminal 6xHis tag; also called sdAb AS01274) VHH: QVQLVESGGGLVQPGGSLRLSCVASGSIASIATMAWYRQAPGQQRELVAGITRGGSTKYADSVKGRFTISRDNAKNTLYLQMNSLKPDDTAVYYCTDYSRKYYQDYWGQGTQVTVSS	3.3e+06
AS01299VH3a (VHH, Humanized variant of AS01299, C-terminal 6xHis tag) VHH: EVQLVESGGGLVQPGGSLRLSCAASGSIFSIATMAWYRQAPGKGLELVAGITRSGSTNYRDSVKGRFTISRDNSKNTMYLQMNSLRAEDTAVYYCTDYSSRYYHDYWGQGTLVTVSS	810000
AS01299VH4-L47 (VHH, Humanized variant of AS01299, C-terminal 6xHis tag; also called AS01299VH4-L47-2) VHH: EVQLVESGGGLVQPGGSLRLSCAASGSIFSIATMAWYRQAPGKGLEWVSGITRSGSTNYRDSVKGRFTISRDNSKNTLYLQMNSLRAEDTAVYYCTDYSSRYYHDYWGQGTLVTVSS	590000
AS01299VH3a-M78 (VHH, Humanized variant of AS01299, C-terminal 6xHis tag) VHH: EVQLVESGGGLVQPGGSLRLSCAASGSIFSIATMAWYRQAPGKGLELVAGITRSGSTNYRDSVKGRFTISRDNSKNTLYLQMNSLRAEDTAVYYCTDYSSRYYHDYWGQGTLVTVSS	1e+06
AS01299VH4 (VHH, Humanized variant of AS01299, C-terminal 6xHis tag) VHH: EVQLVESGGGLVQPGGSLRLSCAASGSIFSIATMAWYRQAPGKGLELVSGITRSGSTNYRDSVKGRFTISRDNSKNTLYLQMNSLRAEDTAVYYCTDYSSRYYHDYWGQGTLVTVSS	1e+06

Incoming: Entry AS01299VH3a-A49 (VHH, Humanized variant of AS01299, C-terminal 6xHis tag) VHH: EVQLVESGGGLVQPGGSLRLSCAASGSIFSIATMAWYRQAPGKGLELVSGITRSGSTNYRDSVKGRFTISRDNSKNTMYLQMNSLRAEDTAVYYCTDYSSRYYHDYWGQGTLVTVSS has what kon?
Outgoing: 420000

Incoming: Entry AS01299 sdAb (VHH, Llama sdAb made in E. coli with a C-terminal 6xHis tag; also called sdAb AS01299) VHH: QVQLVESGGGLVQPGGSLRLSCAASGSIFSIATMAWYRQAPGKQRELVAGITRSGSTNYRDSVKGRFTISRDNAKNTMYLQMNSLKPEDTAVYYCTDYSSRYYHDYWGQGTQVTVSS has what kon?
Outgoing: 2.2e+06
